molecular target: Recombinant Human Poly(ADP-Ribose) Polymerase (PARP), PARP-1 (Homo sapiens (Human)); conditions: read-out: PARP-1 (Ki); Table 1; text calls the values EC50s
Sequence (P09874 whole entry): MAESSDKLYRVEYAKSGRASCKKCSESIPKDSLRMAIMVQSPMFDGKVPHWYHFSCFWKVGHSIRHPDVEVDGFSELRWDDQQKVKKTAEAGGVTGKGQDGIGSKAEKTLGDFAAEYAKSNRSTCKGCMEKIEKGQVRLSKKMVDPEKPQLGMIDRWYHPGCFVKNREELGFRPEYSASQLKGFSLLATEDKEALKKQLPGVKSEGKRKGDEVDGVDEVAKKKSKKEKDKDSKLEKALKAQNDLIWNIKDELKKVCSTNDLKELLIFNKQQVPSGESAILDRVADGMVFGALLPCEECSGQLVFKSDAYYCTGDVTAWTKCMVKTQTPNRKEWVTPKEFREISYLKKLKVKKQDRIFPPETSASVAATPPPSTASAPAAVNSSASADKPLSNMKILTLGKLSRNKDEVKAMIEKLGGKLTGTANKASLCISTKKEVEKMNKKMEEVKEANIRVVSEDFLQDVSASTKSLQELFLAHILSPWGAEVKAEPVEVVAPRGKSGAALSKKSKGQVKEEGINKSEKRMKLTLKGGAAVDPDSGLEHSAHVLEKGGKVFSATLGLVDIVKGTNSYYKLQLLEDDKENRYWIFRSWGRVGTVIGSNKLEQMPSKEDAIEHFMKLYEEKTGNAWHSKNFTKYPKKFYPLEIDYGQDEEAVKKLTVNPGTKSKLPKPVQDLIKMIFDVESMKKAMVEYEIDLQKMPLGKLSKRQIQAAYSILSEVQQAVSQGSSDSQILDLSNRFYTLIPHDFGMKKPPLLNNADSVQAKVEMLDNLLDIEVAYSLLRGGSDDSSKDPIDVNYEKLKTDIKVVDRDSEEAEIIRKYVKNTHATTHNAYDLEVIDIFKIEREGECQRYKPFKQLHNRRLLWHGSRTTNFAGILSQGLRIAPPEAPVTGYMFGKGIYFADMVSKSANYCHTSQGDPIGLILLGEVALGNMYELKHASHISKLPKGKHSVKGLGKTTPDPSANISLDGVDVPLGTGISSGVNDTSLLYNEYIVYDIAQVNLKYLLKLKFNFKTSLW
Ki strictly less than 80 nM = Criterion met. Otherwise Criterion not met.

Below are worked cases with known answers.
| sample_smiles | category |
| --- | --- |
| O=c1[nH]nc(Cc2ccc(F)c(Cl)c2)c2c1CCCN2 | Criterion not met |
| CC(=O)c1ccc(C(=O)Nc2cccc(Cc3n[nH]c(=O)c4c3CCCC4)c2)cc1 | Criterion met |
| Cc1ccc(OCC(=O)Nc2cccc(Cc3n[nH]c(=O)c4c3CCCC4)c2)cc1 | Criterion met |
| COc1ccc(S(=O)(=O)N2CCN(C(=O)c3cc(Cc4n[nH]c(=O)c5c4CCCC5)ccc3F)CC2)cc1 | Criterion met |
| CC(=O)Nc1cccc(-c2cc(CCc3n[nH]c(=O)c4c3CCCC4)ccc2F)c1 | Criterion not met |

Does the reported Ki of the following molecule sit strictly below 80 nM? O=C(CCN1CCCCC1)Nc1cccc(Cc2n[nH]c(=O)c3c2CCCC3)c1 Criterion not met

Report whether reported Ki is lower than 80 nM (strictly) for NC(=O)C1CCN(C(=O)c2cccc(Cc3n[nH]c(=O)c4c3CCCC4)c2)CC1 Criterion met
